# Tested on: NCI-H226 lung
# ASSAY EXPLANATION: NCI tumour cell line growth inhibition, 48 h
Overview of reported TGI across a group of molecules:
Express your answer in µM, writing the number without its unit.

Some solved entries appear below for comparison.
| MOLECULE | TESTED SYSTEM | TGI, µM |
| --- | --- | --- |
| COc1ccc2c(c1)-c1[nH]c3ccc(OC)cc3c1CC2 | NCI-H226 lung | 24.3 |
| COc1cc(/C=N/NC(=O)c2cnn3c2NC(c2ccccc2)C3)ccc1Oc1ccccc1 (stereo not given) | NCI-H226 lung | 7.95 |
| Cc1ccc(C)n1-c1ccccc1C1C=CN(C(=O)OC(C)(C)C)C=C1 | NCI-H226 lung | 31.5 |

Then there is this molecule:
Prompt: In one line, give reported TGI of the entry "C=C1C(=O)O[C@H]2[C@H](OC(C)=O)[C@@H](C)CCC/C(C)=C/CC[C@@]3(C)O[C@@H]3C[C@@H]12" .
Completion: 3.32

* * *

# Tested on: UO-31 renal
# ASSAY EXPLANATION: NCI tumour cell line growth inhibition, 48 h; in the data active means GI50 below about 0.43 µM; inactive means the rest
Pick one: label 1 for active, label 0 for inactive

Record excerpt, results attached:
| COMPOUND | ASSIGNED CATEGORY |
| --- | --- |
| Oc1[nH]c2c(Br)cccc2c1C1=Nc2ccccc2/C1=N/OCCN1CCCC1 | label 0 |
| CC(C)COCC(CN(Cc1ccccc1)c1ccccc1)N1CCCC1 (centres undefined) | label 0 |
| Cc1cc(NCc2cc(Nc3ccnc4cc(Cl)ccc34)ccc2F)nc(N2CCN(C)CC2)n1 | label 0 |
| CCC[CH2][Sn]([CH2]CCC)([CH2]CCC)[O]C(=O)c1ccc(Cl)cc1Cl | label 1 |
| COc1cc(/C=C/C(=O)c2c(C)nc3ccccc3c2/C=C/c2ccc(C)cc2)cc(OC)c1OC | label 0 |
| COc1ccc(S(=O)(=O)Nc2cc(/C=C\c3cc(OC)c(OC)c(OC)c3)ccc2OC)cc1 | label 1 |
| CCN1C(=O)N(c2ccccc2)C2NC(=S)N(/N=C/C=C/c3ccccc3)C21 (centres undefined) | label 0 |
| CCN1Cc2c(ccc(F)c2C#N)O[C@@H](C)CNC(=O)c2c(N)nn3ccc1nc23 | label 0 |
| COC(=O)C1CCCN1C(=O)[C@@H]1CCCN1C(=O)[C@H](Cc1c[nH]c2ccccc12)NC(=S)Nc1cc(C(F)(F)F)cc(C(F)(F)F)c1 (some centres undefined) | label 0 |
| O=C(Nc1ccc2[nH]c(=S)sc2c1)Nc1ccccc1F | label 0 |

Prompt: Recorded call for "O=S(=O)(c1cccc2c(Cl)cccc12)N1CCCNCC1" ?
Completion: label 0

Prompt: Recorded call for OC(CNCC1CCCO1)Cn1c2ccc(Cl)cc2c2cc(Cl)ccc21 (centres undefined) ?
Completion: label 0

Prompt: Recorded call for "Clc1ccc2nnnn2n1" ?
Completion: label 0

Prompt: Recorded call for CN(C)CC1C(=O)O[C@H]2[C@H]1CC/C(COC(=O)c1cc3ccccc3[nH]1)=C\CC[C@@]1(C)O[C@@H]21 (some centres undefined) ?
Completion: label 0

* * *

# Tested on: HL-60(TB) leukemia
# ASSAY EXPLANATION: NCI tumour cell line growth inhibition, 48 h
METRIC NAME: TGI

Some solved entries appear below for comparison.
| COMPOUND | TEST VALUE |
| --- | --- |
| CN(Cc1cccc2ccccc12)Cc1cccc2ccccc12 | 33.4 µM |
| N#CCCN(c1ccc(C=Nc2ccccc2Cl)cc1)S(=O)(=O)c1ccccc1 | > 100 µM |
| Nc1ncnc2c1ncn2C1OC(CO)C(O)C(O)C1O (centres undefined) | > 100 µM |
| CCCCN(Cc1ccccc1)C(=NC#N)N(Cc1ccccc1)Cc1ccccc1 | > 100 µM |
| CN1CC[C@]2(C)c3cc(O)ccc3CC3CCCC1C32C (some centres undefined) | > 100 µM |
| COc1cc(/C=C/C(=O)c2c(C)nc3ccccc3c2/C=C/c2ccc(C)cc2)cc(OC)c1OC | 6.29 µM |

Prompt: In one line, give reported TGI of the entry "C/C(=N\NC(=S)N1CCN(C)CC1)c1nc2ncccc2[nH]1" .
Completion: > 100 µM

Prompt: In one line, give reported TGI of the entry "S=C1CSc2c(ccc3ccccc23)N1" .
Completion: > 100 µM

Prompt: In one line, give reported TGI of the entry O=[N+]([O-])c1cc(C2SCc3nc4ccccc4n32)ccc1Cl (centres undefined) .
Completion: 42.4 µM

Prompt: In one line, give reported TGI of the entry "O=C1C=CC[C@H](/C=C/c2ccccc2)O1" .
Completion: > 34 µM
